- tested.target: HLA-A3.2 molecules isolated from the EBV transformed cell line GM3107 (human)
assay.metric: IC50 (nM)
Give the number; nM is assumed, so skip it.

Sample KVFPYALINK (modifications not checked) [probe peptide … for A3.2] ; IC50 observed: 30

Values compiled from patent US7364741.
